Cited source: patent US20260232827A1

Assay: Thermal stability by differential scanning calorimetry (DSC)
Assay type: physicochemical
Settings: 0.4 mg/mL in PBS
Protocol: The thermal stability of the humanized antibody variants was assessed by differential scanning calorimetry (DSC) as described below. 400 μL of purified samples primarily at concentrations of 0.4 mg/mL in PBS were used for DSC analysis with a VP-Capillary DSC (Malvern Panalytical Inc., Westborough, MA). […] The resulting thermograms were referenced and analyzed using Origin 7 software (OriginLab Corporation, Northampton, MA) to determine melting temperature (Tm) as an indicator of thermal stability.
Value Type: Fab Tm (°C)

Molecule	Value Type	Obs Value
v29453: "Representative humanized antibody variants ... of the mouse antibody" that specifically binds hNaPi2b (antibody, V domains shown, v29449, v29453, v29457 H4; v29453, v29454, v29455, v29456 L2) VH: QVQLVQSGAEVKKPGASVKMSCKASGFTFTSYNVHWVRQAPGQGLEWIAAISPGNGDLSYAQKFQGRATLTVDRSTSTAYMELSSLRSEDTAVYYCARGRTGMGAVDYWGQGTLVTVSS VL: DVQMTQSPSSLSASVGDRVTITCRASQDVYSYLNWYQQKPGKAVKLLIYYTSRLQSGVPSRFSGSGSGTDYTLTISSLQPEDFATYYCQQYNIFPWTFGQGTKLEIK	Fab Tm	78.9
v29457: "Representative humanized antibody variants ... of the mouse antibody" that specifically binds hNaPi2b (antibody, V domains shown, v29449, v29453, v29457 H4; v29457, v29458, v29459, v29460 L1) VH: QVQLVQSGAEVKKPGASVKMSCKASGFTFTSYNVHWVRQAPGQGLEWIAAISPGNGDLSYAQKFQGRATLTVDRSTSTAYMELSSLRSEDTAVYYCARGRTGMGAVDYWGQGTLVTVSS VL: DIQMTQSPSSLSASVGDRVTITCRASQDVYSYLNWYQQKPGKAPKLLIYYTSRLQSGVPSRFSGSGSGTDFTLTISSLQPEDFATYYCQQYNIFPWTFGQGTKLEIK	Fab Tm	80.5
v29455: "Representative humanized antibody variants ... of the mouse antibody" that specifically binds hNaPi2b (antibody, V domains shown, v29451, v29455, v29459 H2; v29453, v29454, v29455, v29456 L2) VH: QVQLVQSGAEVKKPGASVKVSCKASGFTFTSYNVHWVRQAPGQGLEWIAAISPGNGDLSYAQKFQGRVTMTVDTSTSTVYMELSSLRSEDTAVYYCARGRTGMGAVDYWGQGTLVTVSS VL: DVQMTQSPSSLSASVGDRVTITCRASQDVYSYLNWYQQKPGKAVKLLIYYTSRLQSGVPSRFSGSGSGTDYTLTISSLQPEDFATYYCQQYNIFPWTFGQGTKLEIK	Fab Tm	81.5
